System: EKVX
Assay Procedure: NCI tumour cell line growth inhibition, 48 h
Activity calls are given as the source filed them. Rule as the data show it: active = GI50 up to about 1.1 µM and inactive = higher.

| Compound | GI50 |
| --- | --- |
| COC(=O)C1=NN2c3ccccc3C(=O)OCCC2C1 (stereo not given) | > 100 µM (inactive) |
| COC(=O)c1oc([N+](=O)[O-])c(-c2ccccc2)c1-c1ccccc1 | > 100 µM (inactive) |
| O=[N+]([O-])c1nccn1COCCF | > 100 µM (inactive) |
| CSc1ccc(/C=C2\N=C(c3ccccc3)N(NC(=O)c3c(Cl)c(Cl)c(Cl)c(Cl)c3-c3nc4ccccc4[nH]3)C2=O)cc1 | 25.5 µM (inactive) |
| N#CCCC1(CCC#N)CCCCCCC(CCC#N)(CCC#N)C(=O)C1=O | > 100 µM (inactive) |
